# Target Or System: UniProt:Q14680
# Assay Remarks: Inhibition of full-length MELK (unknown origin) preincubated for 20 mins followed by addition of KinEASE STK S1 peptide as substrate in presence of 20 uM ATP measured after 20 mins by time-resolved fluorescence assay

{"columns": ["Chem Smiles", "IC50, nM"],
 "data": [
  ["CN1CCN(c2ccc(-n3cc(-c4ccncc4OCC4CCNCC4)cn3)cc2)CC1", 5]
]}

###

# Assay Remarks: Clearance in C57BL/6 mouse at 1 mg/kg, iv by LC-MS/MS analysis
# Type: ADME, organism-based
# Condition Description: in vivo

{"columns": ["Chem Smiles", "Readout Unit", "clearance"],
 "data": [
  ["CN1CCN(c2ccc(-n3cc(-c4ccncc4OCC4CCNCC4)cn3)cc2)CC1", "mL/min/kg", 114]
]}

###

# Target Or System: Maternal embryonic leucine zipper kinase (Homo sapiens)
# Sequence (Q14680 whole entry, the tested form may be a part): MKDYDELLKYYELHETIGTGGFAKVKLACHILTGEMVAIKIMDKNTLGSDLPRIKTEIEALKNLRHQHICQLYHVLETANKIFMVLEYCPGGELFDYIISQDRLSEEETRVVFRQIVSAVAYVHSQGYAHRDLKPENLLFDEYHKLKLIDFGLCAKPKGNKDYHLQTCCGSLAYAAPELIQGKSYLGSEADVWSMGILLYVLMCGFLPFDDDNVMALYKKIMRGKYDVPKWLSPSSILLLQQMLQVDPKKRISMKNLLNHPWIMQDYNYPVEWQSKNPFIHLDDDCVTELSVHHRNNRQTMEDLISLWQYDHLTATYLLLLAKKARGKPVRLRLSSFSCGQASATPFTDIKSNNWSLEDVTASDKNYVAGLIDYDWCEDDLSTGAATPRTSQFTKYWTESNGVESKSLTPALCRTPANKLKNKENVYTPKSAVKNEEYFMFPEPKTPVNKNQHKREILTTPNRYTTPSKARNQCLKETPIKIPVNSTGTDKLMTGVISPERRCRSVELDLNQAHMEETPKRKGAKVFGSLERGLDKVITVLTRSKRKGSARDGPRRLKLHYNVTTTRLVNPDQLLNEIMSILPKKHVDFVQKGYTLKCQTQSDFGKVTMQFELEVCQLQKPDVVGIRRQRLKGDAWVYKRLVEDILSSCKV
# Assay Remarks: Inhibition of MELK catalytic domain (unknown origin) preincubated for 20 mins followed by addition of KinEASE STK S1 peptide as substrate in presence of 2 mM ATP measured after 20 mins by time-resolved fluorescence assay

{"columns": ["Chem Smiles", "Target Or System", "IC50 [nM]"],
 "data": [
  ["CN1CCN(c2ccc(-n3cc(-c4ccncc4F)cn3)cc2)CC1", "Maternal embryonic leucine zipper kinase (Homo sapiens)", 5000],
  ["CN1CCN(c2ccc(-n3cc(-c4ccncc4OC[C@H]4CC[C@H](N)CC4)cn3)cc2)CC1", "Maternal embryonic leucine zipper kinase (Homo sapiens)", 57],
  ["CC(C)COc1cnccc1-c1cnn(-c2ccc(N3CCN(C)CC3)cc2)c1", "Maternal embryonic leucine zipper kinase (Homo sapiens)", 410],
  ["c1cc(-c2cnn(-c3ccc(N4CCOCC4)cc3)c2)c(OCC2CCNCC2)cn1", "Maternal embryonic leucine zipper kinase (Homo sapiens)", 210],
  ["CN1CCN(c2ccc(-n3cc(-c4ccncc4OCc4ccncc4)cn3)cc2)CC1", "Maternal embryonic leucine zipper kinase (Homo sapiens)", 1440],
  ["CN1CCN(c2ccc(-n3cc(-c4ccncc4OC4CCNCC4)cn3)cc2)CC1", "Maternal embryonic leucine zipper kinase (Homo sapiens)", 260],
  ["CN1CCN(c2ccc(-n3cc(-c4ccncc4OCC4CCNCC4)cn3)cc2)CC1", "Maternal embryonic leucine zipper kinase (Homo sapiens)", 140],
  ["CN1CCN(c2ccc(-n3cc(-c4ccncc4OC4CCCCC4)cn3)cc2)CC1", "Maternal embryonic leucine zipper kinase (Homo sapiens)", 150],
  ["CN1CCN(c2ccc(-n3cc(-c4ccncc4)cn3)cc2)CC1", "Maternal embryonic leucine zipper kinase (Homo sapiens)", 5000],
  ["O=C(NCc1ccccn1)c1ccc(-n2cc(-c3ccncc3)cn2)cc1", "Maternal embryonic leucine zipper kinase (Homo sapiens)", 18800]
]}

###

# Target Or System: Platelet-derived growth factor receptor alpha (Homo sapiens, UniProt P16234)
# Sequence (P16234 whole entry): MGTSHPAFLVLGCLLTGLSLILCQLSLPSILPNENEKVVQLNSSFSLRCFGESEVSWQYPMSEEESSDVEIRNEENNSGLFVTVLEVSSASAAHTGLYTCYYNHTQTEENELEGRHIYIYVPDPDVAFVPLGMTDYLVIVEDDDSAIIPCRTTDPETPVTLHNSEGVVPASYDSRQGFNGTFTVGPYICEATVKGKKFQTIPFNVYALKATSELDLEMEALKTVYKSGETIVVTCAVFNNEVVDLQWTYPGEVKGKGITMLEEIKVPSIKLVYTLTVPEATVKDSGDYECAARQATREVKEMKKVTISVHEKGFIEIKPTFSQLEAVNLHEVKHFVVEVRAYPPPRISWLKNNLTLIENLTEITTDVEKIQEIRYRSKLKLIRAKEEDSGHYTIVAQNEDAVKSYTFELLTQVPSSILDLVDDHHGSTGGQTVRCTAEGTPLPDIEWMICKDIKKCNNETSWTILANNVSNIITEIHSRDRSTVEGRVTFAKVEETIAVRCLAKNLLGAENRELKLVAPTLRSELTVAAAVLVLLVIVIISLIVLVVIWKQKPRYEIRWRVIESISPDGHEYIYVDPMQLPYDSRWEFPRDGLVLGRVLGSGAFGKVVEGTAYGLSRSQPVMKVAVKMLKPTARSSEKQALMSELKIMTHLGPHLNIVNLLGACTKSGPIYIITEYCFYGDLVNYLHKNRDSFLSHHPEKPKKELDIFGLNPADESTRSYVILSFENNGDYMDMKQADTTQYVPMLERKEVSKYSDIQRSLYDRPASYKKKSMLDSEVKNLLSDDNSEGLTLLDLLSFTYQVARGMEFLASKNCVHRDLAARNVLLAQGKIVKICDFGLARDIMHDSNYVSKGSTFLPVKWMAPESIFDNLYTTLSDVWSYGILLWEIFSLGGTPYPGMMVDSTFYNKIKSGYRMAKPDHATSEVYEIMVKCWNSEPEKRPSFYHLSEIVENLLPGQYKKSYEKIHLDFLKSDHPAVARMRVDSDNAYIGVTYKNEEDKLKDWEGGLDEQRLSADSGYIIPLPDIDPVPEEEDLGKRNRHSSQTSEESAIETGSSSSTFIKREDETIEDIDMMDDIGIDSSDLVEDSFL
# Assay Remarks: Inhibition of PDGFR-alpha (unknown origin)

{"columns": ["Chem Smiles", "IC50"],
 "data": [
  ["O=C(NCc1ccccn1)c1ccc(-n2cc(-c3ccncc3)cn2)cc1", "< 5 µM"]
]}

###

# Assay Remarks: Oral bioavailability in C57BL/6 mouse at 10 mg/kg by LC-MS/MS analysis
# Format: ADME, organism-based
# Condition Description: in vivo
Assay Endpoint: bioavailability

{"columns": ["Chem Smiles", "Assay Endpoint", "Observed Measurement"],
 "data": [
  ["CN1CCN(c2ccc(-n3cc(-c4ccncc4OCC4CCNCC4)cn3)cc2)CC1", "bioavailability", "3.6%"]
]}
